- TEST_TARGET: 5-lipoxygenase (Rattus norvegicus, UniProt P12527)
- Construct: 20,000 G supernatant from 7.5×10^6 homogenized RBL-1 cells; endogenous in cells
- Sequence (P12527 whole entry): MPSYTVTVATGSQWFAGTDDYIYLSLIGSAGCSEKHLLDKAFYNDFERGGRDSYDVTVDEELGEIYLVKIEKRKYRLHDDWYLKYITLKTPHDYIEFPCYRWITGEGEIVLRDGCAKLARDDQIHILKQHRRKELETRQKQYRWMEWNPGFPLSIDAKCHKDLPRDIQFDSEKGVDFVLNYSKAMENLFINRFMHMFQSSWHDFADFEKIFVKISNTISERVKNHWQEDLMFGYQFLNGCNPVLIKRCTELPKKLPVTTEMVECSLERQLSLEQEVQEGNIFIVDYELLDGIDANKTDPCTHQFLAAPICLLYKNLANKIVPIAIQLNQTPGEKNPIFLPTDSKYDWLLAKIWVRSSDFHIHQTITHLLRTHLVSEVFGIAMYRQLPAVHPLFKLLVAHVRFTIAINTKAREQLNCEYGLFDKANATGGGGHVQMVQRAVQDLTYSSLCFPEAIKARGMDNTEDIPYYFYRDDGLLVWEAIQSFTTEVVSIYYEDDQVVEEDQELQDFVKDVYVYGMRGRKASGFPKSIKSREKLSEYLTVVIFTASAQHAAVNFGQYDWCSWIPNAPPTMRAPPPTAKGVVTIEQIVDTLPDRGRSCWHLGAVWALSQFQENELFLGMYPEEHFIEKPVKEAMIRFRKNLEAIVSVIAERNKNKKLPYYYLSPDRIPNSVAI
- PROTOCOL_DESCRIPTION: 5-Lipoxygenase IC50 determination (20,000 G supernatant from homogenized RBL-1 cells, radiolabeled arachidonic acid)
- ASSAY_CONTEXT: RBL-1 cell 20,000 G supernatant; linear regression of % inhibition vs log concentration
- Procedure: Reactions were initiated by the addition of radiolabeled arachidonic acid and terminated by acidification and ether extraction. Reaction products were separated from nonconverted substrate by thin layer chromatography and measured by liquid scintillatiton spectroscopy. Inhibition of 5-lipoxygenase activity was calculated as the ratio of the amounts of product formed in the presence and absence of inhibitor.
OBSERVED_PROPERTY: IC50 (nM)
Numbers only; they are read as nM.

// solved cases for IC50 follow
| COMPOUND | U | IC50 |
| --- | --- | --- |
| O=C(NO)c1cccc(-c2ccccc2)c1 [Example 8, 3-biphenyl hydroxamic acid] | nM | 6000 |
| O=C(NO)c1ccc(-c2ccccc2)cc1 [Example 7, 4-biphenyl hydroxamic acid] | nM | 4100 |
| O=C(NO)c1ccc2ccc3ccccc3c2c1 [Example 13, 3-Phenanthryl hydroxamic acid] | nM | 1200 |

Now look at this one.
# input Could you share which IC50 value was measured for O=C(NO)c1ccc2c(ccc3ccccc32)c1 [Example 12, 2-Phenanthrylhydroxamic acid] ?
# output 1900
